subject.of.test: T1, Caspase-7 (UniProt P55210 24-303)
T1 sequence (looked up): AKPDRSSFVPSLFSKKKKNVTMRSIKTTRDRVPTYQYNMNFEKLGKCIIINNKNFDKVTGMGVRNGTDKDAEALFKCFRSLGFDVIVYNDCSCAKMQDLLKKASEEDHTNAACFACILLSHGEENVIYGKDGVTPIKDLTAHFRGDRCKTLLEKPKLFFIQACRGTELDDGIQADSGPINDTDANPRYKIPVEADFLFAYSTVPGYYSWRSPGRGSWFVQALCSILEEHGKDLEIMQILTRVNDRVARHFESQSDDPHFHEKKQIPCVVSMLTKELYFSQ
assay.explanation: cell-based or functional assay
Numbered stars: 1 amine (or outer) side, 2 acyl side, 3 side chain; on linkers, the order of the positions; unused ones are H or OH. Square brackets hold non-standard residues; d marks the D form. * marks the point of attachment. CH═CH‑CON(CH2Ph)2 = O=C(/C=C/*)N(Cc1ccccc1)Cc1ccccc1; CH═CH‑CON(CH3)CH2CH2Ph = CN(CCc1ccccc1)C(=O)/C=C/*; AAsp = aza-Asp, O=C(N(CC(=O)[*:3])N[*:1])[*:2]; CH═CH‑CON(CH3)CH2Ph = CN(Cc1ccccc1)C(=O)/C=C/*; CH═CH‑COOCH2Ph = O=C(/C=C/*)OCc1ccccc1; CH═CH‑COOEt = CCOC(=O)/C=C/*; Cbz = O=C(OCc1ccccc1)*
List of log10 of k2 values.
measurement.type: log10 of k2 (log10 of the value in M⁻¹ s⁻¹)

{"columns": ["binder", "log10 of k2"],
 "data": [
  ["Cbz-DEV[AAsp]-{CH═CH‑COPh} [Cbz-Asp-Glu-Val-AAsp-CH═CH-COPh]", 4.03],
  ["Cbz-LET[AAsp]-{CH═CH‑CON(CH2Ph)2} (SMILES CC(C)C[C@H](NC(=O)OCc1ccccc1)C(=O)N[C@@H](CCC(=O)O)C(=O)N[C@H](C(=O)NN(CC(=O)O)C(=O)/C=C/C(=O)N(Cc1ccccc1)Cc1ccccc1)[C@@H](C)O) [Cbz-Leu-Glu-Thr-AAsp-CH═CH-CON(CH2Ph)2]", 2.88],
  ["Cbz-LET[AAsp]-{CH═CH‑CON(CH3)CH2‑1‑Napth} [Cbz-Leu-Glu-Thr-AAsp-CH═CH-CON(CH3)CH2-1-Napth]", 3.04],
  ["Cbz-DEV[AAsp]-{cis‑CH═CH‑COOEt} [Cbz-Asp-Glu-Val-AAsp-CH═CH-COOEt (cis)]", 5.14],
  ["Cbz-DEV[AAsp]-{CH═CH‑CONHCH2‑4‑F‑Ph} [Cbz-Asp-Glu-Val-AAsp-CH═CH-CONHCH2-4-F-Ph]", 5.52],
  ["Cbz-DEV[AAsp]-{CH═CH‑CON(CH3)CH2CH2Ph} (SMILES CC(C)[C@H](NC(=O)[C@H](CCC(=O)O)NC(=O)[C@H](CC(=O)O)NC(=O)OCc1ccccc1)C(=O)NN(CC(=O)O)C(=O)/C=C/C(=O)N(C)CCc1ccccc1) [Cbz-Asp-Glu-Val-AAsp-CH═CH-CON(CH3)CH2CH2Ph]", 5.24],
  ["Cbz-LET[AAsp]-{CH═CH‑COOCH2Ph} (SMILES CC(C)C[C@H](NC(=O)OCc1ccccc1)C(=O)N[C@@H](CCC(=O)O)C(=O)N[C@H](C(=O)NN(CC(=O)O)C(=O)/C=C/C(=O)OCc1ccccc1)[C@@H](C)O) [Cbz-Leu-Glu-Thr-AAsp-CH═CH-COOCH2Ph]", 3.20],
  ["Cbz-Val-[AAsp]-{CH═CH‑CONHCH2Ph} [Cbz-Val-AAsp-CH═CH-CONHCH2Ph]", 1.78],
  ["Cbz-LET[AAsp]-{CH═CH‑CON(CH3)CH2Ph} (SMILES CC(C)C[C@H](NC(=O)OCc1ccccc1)C(=O)N[C@@H](CCC(=O)O)C(=O)N[C@H](C(=O)NN(CC(=O)O)C(=O)/C=C/C(=O)N(C)Cc1ccccc1)[C@@H](C)O) [Cbz-Leu-Glu-Thr-AAsp-CH═CH-CON(CH3)CH2Ph]", 2.72],
  ["Cbz-Val-[AAsp]-{CH═CH‑CONH‑nBu} [Cbz-Val-AAsp-CH═CH-CONH-nBu]", 1.74],
  ["Cbz-LET[AAsp]-{CH═CH‑CONHCH2Ph} [Cbz-Leu-Glu-Thr-AAsp-CH═CH-CONHCH2Ph]", 2.53],
  ["Cbz-DEV[AAsp]-{CH═CH‑CO‑tetrahydroquinoline} [Cbz-Asp-Glu-Val-AAsp-CH═CH-CON-tetrahydroquinoline]", 5.14],
  ["Cbz-LET[AAsp]-{CH═CH‑CON(CH3)CH2CH2Ph} (SMILES CC(C)C[C@H](NC(=O)OCc1ccccc1)C(=O)N[C@@H](CCC(=O)O)C(=O)N[C@H](C(=O)NN(CC(=O)O)C(=O)/C=C/C(=O)N(C)CCc1ccccc1)[C@@H](C)O) [Cbz-Leu-Glu-Thr-AAsp-CH═CH-CON(CH3)CH2CH2Ph]", 2.46],
  ["Cbz-LET[AAsp]-{CH═CH‑CO‑tetrahydroquinoline} [Cbz-Leu-Glu-Thr-AAsp-CH═CH-CON-tetrahydroquinoline]", 2.73],
  ["Cbz-DEV[AAsp]-{CH═CH‑CONHCH2CH2Ph} [Cbz-Asp-Glu-Val-AAsp-CH═CH-CONHCH2CH2Ph]", 5.43],
  ["Cbz-LET[AAsp]-{CH═CH‑CONHPh} [Cbz-Leu-Glu-Thr-AAsp-CH═CH-CONHPh]", 2.86],
  ["Cbz-DEV[AAsp]-{CH═CH‑CON(CH2-1-Napth)2} [Cbz-Asp-Glu-Val-AAsp-CH═CH-CON(CH2-1-Napth)2]", 5.94],
  ["Cbz-DEV[AAsp]-{CH═CH‑CON(CH3)CH2Ph} (SMILES CC(C)[C@H](NC(=O)[C@H](CCC(=O)O)NC(=O)[C@H](CC(=O)O)NC(=O)OCc1ccccc1)C(=O)NN(CC(=O)O)C(=O)/C=C/C(=O)N(C)Cc1ccccc1) [Cbz-Asp-Glu-Val-AAsp-CH═CH-CON(CH3)CH2Ph]", 5.44],
  ["Cbz-Val-[AAsp]-{CH═CH‑COOEt} [Cbz-Val-AAsp-CH═CH-COOEt]", 3.43]
]}
